Measured pIC50 by item
Target: Programmed cell death protein 1/Programmed cell death 1 ligand 1 (Homo sapiens)
Sequence (Q15116 whole entry): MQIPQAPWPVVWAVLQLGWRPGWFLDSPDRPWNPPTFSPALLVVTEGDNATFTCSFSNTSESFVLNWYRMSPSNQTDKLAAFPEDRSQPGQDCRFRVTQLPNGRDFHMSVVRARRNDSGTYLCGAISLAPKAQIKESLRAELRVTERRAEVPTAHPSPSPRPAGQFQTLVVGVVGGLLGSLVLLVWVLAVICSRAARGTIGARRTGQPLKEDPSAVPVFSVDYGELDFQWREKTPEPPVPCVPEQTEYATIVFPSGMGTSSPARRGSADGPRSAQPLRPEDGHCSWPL
Sequence (Q9NZQ7 whole entry): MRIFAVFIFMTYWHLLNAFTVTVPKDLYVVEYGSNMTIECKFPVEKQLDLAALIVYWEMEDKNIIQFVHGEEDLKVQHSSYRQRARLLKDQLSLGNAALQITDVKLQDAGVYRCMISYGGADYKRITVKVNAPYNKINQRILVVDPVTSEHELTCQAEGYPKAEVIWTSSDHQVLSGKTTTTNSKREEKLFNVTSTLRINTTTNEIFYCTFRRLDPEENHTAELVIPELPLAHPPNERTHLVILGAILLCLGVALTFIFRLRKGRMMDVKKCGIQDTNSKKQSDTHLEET
Test: Inhibition of PD-1/PD-L1 (unknown origin) protein-protein interaction by HTRF assay
pIC50: −log10 of the molar value.

>  <molecular.string>
COc1nc(OCc2cccc(-c3ccccc3)c2C)ccc1CNC(C)(C)C(=O)NO

>  <system.tested>
Programmed cell death protein 1/Programmed cell death 1 ligand 1 (Homo sapiens)

>  <limit.qualifier>
<

>  <pIC50>
6.00

$$$$
>  <molecular.string>
COc1nc(-c2cccc(-c3ccccc3)c2C)ccc1CNC1(C(=O)Nc2ccccc2N)CCCC1

>  <system.tested>
Programmed cell death protein 1/Programmed cell death 1 ligand 1 (Homo sapiens)

>  <limit.qualifier>
<

>  <pIC50>
6.00

$$$$
>  <molecular.string>
COc1nc(OCc2cccc(-c3ccccc3)c2C)ccc1CNCC(=O)NO

>  <system.tested>
Programmed cell death protein 1/Programmed cell death 1 ligand 1 (Homo sapiens)

>  <limit.qualifier>
=

>  <pIC50>
7.03

$$$$
>  <molecular.string>
CCCC[C@@H](NCc1ccc(OCc2cccc(-c3ccccc3)c2C)nc1OC)C(=O)Nc1ccccc1N

>  <system.tested>
Programmed cell death protein 1/Programmed cell death 1 ligand 1 (Homo sapiens)

>  <limit.qualifier>
=

>  <pIC50>
7.00

$$$$
>  <molecular.string>
COc1nc(-c2cccc(-c3ccccc3)c2C)ccc1CNCCCCCC(=O)NO

>  <system.tested>
Programmed cell death protein 1/Programmed cell death 1 ligand 1 (Homo sapiens)

>  <limit.qualifier>
=

>  <pIC50>
7.16

$$$$
>  <molecular.string>
CC[C@@H](NCc1ccc(OCc2cccc(-c3ccccc3)c2C)nc1OC)C(=O)Nc1ccccc1N

>  <system.tested>
Programmed cell death protein 1/Programmed cell death 1 ligand 1 (Homo sapiens)

>  <limit.qualifier>
=

>  <pIC50>
7.00

$$$$
>  <molecular.string>
COc1nc(OCc2cccc(-c3ccccc3)c2C)ccc1CNC(C)(C)CC(=O)Nc1ccccc1N

>  <system.tested>
Programmed cell death protein 1/Programmed cell death 1 ligand 1 (Homo sapiens)

>  <limit.qualifier>
=

>  <pIC50>
7.04

$$$$
